Kindly state growth for each of the entries shown.
Test system: U251 CNS
Assay: NCI-60 one-dose screen, 48 h (100 = growth as untreated, 0 = no growth, -100 = all killed)
Conditions: 10 µM unless noted
About 83,000 compounds went through this panel and 20% of them were active in at least one assay; those are over-represented in the sample as a whole.
Give a bare numeral; the unit % is implied.

Q. growth lookup needed for Cc1cc2c(c(=O)o1)C(c1ccc(OC(=O)N3CCOCC3)cc1)C(C#N)=C(N)O2 (stereo not drawn) , thanks.
A. 100

Q. What value of growth has been reported for the following compound? `Clc1ccc(/C=C/c2nc(N3CCOCC3)c3nc(Cl)c(Cl)cc3n2)cc1`
A. 103

Q. Quick check: growth of COc1cc(/C=C2\CCCC3=C2NC(C)=NC3c2cc(OC)c(OC)c(OC)c2)cc(OC)c1OC (stereo not drawn) ?
A. 9.77

Q. Requested read-out: growth. Entry: `COc1ccc(/C=C/C(=O)c2ccc(NC(=O)CN3CCN(c4cc5c(cc4F)c(=O)c(C(=O)O)cn5C4CC4)CC3)cc2)cc1`
A. 98.6

Q. Name the recorded growth for `C=CCOc1cccc(/C=C/C(=O)c2sc(Nc3cccnc3)nc2C)c1` .
A. 50.7

Q. Field request: growth | item: COC1=CC(c2ccc[nH]2)=N/C1=C\c1[nH]c(C)c(CCCn2cc(CCCCCCCCC[C@@H]3Cc4cc(O)ccc4C4CC[C@]5(C)[C@@H](O)CC[C@H]5C43)nn2)c1C (stereo partly drawn)
A. 44.1

Q. Field request: growth | item: `O=C(N/N=C/c1c(Cl)cccc1Cl)c1ccccc1Nc1ccnc(C(F)(F)F)c1`
A. 67.7

Q. Return reported growth; argument: `C/C(=C\c1csc(C)n1)[C@@H]1C[C@@H]2O[C@]2(C)CCC[C@H](C)[C@H](O)[C@@H](C)C(=O)C(C)(C)[C@@H](O)CC(=O)N1`
A. -100

----------
Test system: RPMI-8226 leukemia
Assay: NCI-60 one-dose screen, 48 h
Conditions: 10 µM unless noted
This is part of a sample that, as a whole, favours compounds with a hit. Of some 83,000 tested, about 20% had one in any assay. Calls of active or inactive are those of the source. How the source made its calls: active means growth percent below 10; inactive means the rest.
Respond with a class label; see True = active, False = inactive

Q. Dear all, I need the recorded test outcome for `O=C1C2=C(C(=O)c3c(O)ccc(O)c31)N(c1cccnc1)Cc1ccccc1O2` , thank you.
A. True

Q. # fetch the recorded call for `CSc1ccccc1C#C/C=C\C#Cc1ccccc1N1CCCCC1=O` here
A. False

Q. Fill in: this test's call for `COc1cc(C(=O)OCCCCCCCCCCC[P+](c2ccccc2)(c2ccccc2)c2ccccc2)ccc1O` is ___
A. True

Q. Which outcome was entered for the compound CC(=O)C1CCC(C)=CC1=O (stereo not given) in this test?
A. False

Q. # fetch the recorded call for `COc1ccc(S(=O)(=O)NCCNc2nccc(-c3c(-c4ccccc4)nc4sccn34)n2)cc1` here
A. False

----------
Tested on: SW-620 colon
Experiment: NCI-60 one-dose screen, 48 h
Settings: 10 µM unless noted
This is part of a sample that, as a whole, favours compounds with a hit. Of some 83,000 tested, about 20% had one in any assay. Activity calls are given as the source filed them. Rule for the calls: active = growth percent below 10; inactive = the rest.
Hi there, use one of these labels in your reply, thanks! yes = active, no = inactive

Q. Which outcome did this test record for the compound `COc1ccc(OC)c(-c2ccc(-c3ccccc3N)c3[nH]c4ccccc4c23)c1` ?
A. no

Q. Tell me the assay call for `Cc1cccc(-n2c(C)nc3ccc(NC(=O)NCCCl)cc3c2=O)c1` please.
A. no

Q. Write down the call the test reported for this compound. Item: `CCn1cc(C(=O)O)c(=O)c2cc(F)c(N3CCN(S(=O)(=O)c4c(C)cc(C)cc4C)CC3)cc21`
A. no

Q. Hi, do you know how O=[N+]([O-])c1cc(S(=O)(=O)OCC2CO2)ccc1Cl (centres undefined) came out in this test?
A. no

Q. Short answer needed: outcome of this test for `COc1cc(/C=C\c2cc(OC)c(OC)c(OC)c2)cc(N/C=C\C(=O)c2c[nH]c3ccccc23)c1OC` ?
A. yes

Q. Please indicate how the test categorized `O=[N+]([O-])c1cccc(-c2cc(-c3cc(Br)ccc3O)[nH]n2)c1` .
A. no

Q. Status in this test for `Nc1c(C(=O)Nc2cccc(C(F)(F)F)c2)sc2nc3c(cc12)CCCCC3` ?
A. no

Q. GET /call?item= CC(Cc1nnc(SCC(=O)Nc2ccc(I)cc2)n1N)c1ccccc1 (centres undefined) returns the recorded outcome of this test.
A. no

Q. Write down the call the test reported for this compound. Item: `O=C(Nc1ccc(F)cc1)c1cc([N+](=O)[O-])ccc1O`
A. no

Q. Given `COc1cccc(-c2nc3sccn3c2-c2ccnc(NCCNS(=O)(=O)c3ccccc3)n2)c1` , state the outcome it received in this test.
A. no

Q. Which outcome did this test record for the compound `Cc1nc(Nc2cccnc2)sc1C(=O)/C=C/c1ccc(Cl)cc1` ?
A. yes

Q. For this compound, state the assay outcome: `CCNCc1ccncc1`
A. no

Q. Outcome logged for `CN1C(=O)[C@H]2c3c1cccc3[C@@]13NC(=O)O[C@H]1[C@H](CCC3(C)C)C2(C)C` in this assay:
A. no

Q. Short answer needed: outcome of this test for `C[C@]12CC[C@@H]3c4cc(O)c(O)cc4CC[C@H]3[C@@H]1CC[C@@H]2O` ?
A. no

Q. Would you mind telling me which call this test gave `O=C1CCCCN1CCCCC#Cc1ccccc1C#Cc1ccccn1` ?
A. no

Q. # lookup: test call for `O=C1C2=C(C(=O)c3c(O)ccc(O)c31)N(c1cccnc1)Cc1ccccc1O2`
A. yes

Q. In this assay, the call recorded for COc1cc(/C=C2\CCCC3=C2NC(C)=NC3c2cc(OC)c(OC)c(OC)c2)cc(OC)c1OC (centres undefined) was what?
A. yes

Q. Outcome? `COc1cc(-c2csc(NC(=O)Nc3ccc(Cl)cc3Cl)n2)cc(OC)c1OC`
A. no

Q. Call for entry Nc1c(C(=O)Nc2cccc([N+](=O)[O-])c2)sc2nc3c(cc12)C(O)CCC3 (centres undefined) :
A. no

Q. Query: recorded result category for COc1ccc2c(c1)C=CC(C#N)N2C(=O)c1ccccc1 (centres undefined) in this test
A. no

Q. Which result was noted for this compound in the test: `O=C(/C=C/c1ccccc1)n1c(-c2ccc(Cl)cc2)nc2ccccc21`
A. yes

Q. How did this test come out for `CCN(Cc1ccccc1)c1ccc(SC#N)cc1` ?
A. no

Q. Tell me the assay call for `COc1cc2nc(Cl)nc(NCCO)c2cc1OC` please.
A. no

Q. Returns: the outcome recorded for CCOC(=O)C1=C(C)NC(=O)NC1c1ccc(OCC(=O)N/N=C/c2ccc(Cl)cc2)cc1 (centres undefined) in this assay.
A. no

Q. Hi, do you know how `CC(=O)c1cc(C(=O)c2ccc3c(c2)Sc2ccccc2N3)c2cc(C)ccn12` came out in this test?
A. no

Q. Check the results log: what was the call for `CC(C)(C)OC(=O)N[C@@H](Cc1ccccc1)C(=O)N(Cc1ccccc1)C1(C(=O)NCc2ccccc2)CCN(Cc2ccccc2)CC1` ?
A. no

Q. How was COC(=O)[C@H]1[C@H](OC)[C@@H](OC(=O)/C=C/c2ccncc2)CC2CN3CCc4c([nH]c5cc(OC)ccc45)[C@@H]3C[C@@H]21 (some centres undefined) classified in this test?
A. no

Q. Each compound tested received a call. Report the one for CCC(c1ccc(OC)cc1)C(CC)c1ccc(OCC[N+](C)(C)C)cc1 (centres undefined) .
A. no

Q. Hi, sorry to bother you, what did the test record for `COc1cc(Cn2c(SCC(=O)Nc3ccc(Cl)cc3)nc3ccccc3c2=O)cc(OC)c1OC` ?
A. no

Q. Each compound tested received a call. Report the one for `COc1cc(NC(=O)CSc2nc3ccc(C)cc3c(=O)n2-c2ccccc2)cc(OC)c1OC` .
A. no

Q. Which outcome did this test record for the compound CCCCCCCCCN1C(=O)/C(=c2\sc3n(c2=O)C2C(NN=3)N(CC)C(=O)N2CC)c2ccccc21 (centres undefined) ?
A. no

Q. Each compound tested received a call. Report the one for `Cc1cc2c(C(C)C)c(O)c(O)c(C=NCCCCC(=O)O)c2c(O)c1-c1c(C)cc2c(C(C)C)c(O)c(O)c(C=NCCCCC(=O)O)c2c1O` .
A. no

Q. How did this test come out for CCCCn1c(=O)c(C2CNC(=O)c3ccccc3N2)cc2ccccc21 (centres undefined) ?
A. no

Q. Dear all, I need the recorded test outcome for `Nc1c(C(=O)Nc2cccc(Cl)c2Cl)sc2nc3c(cc12)C(=O)CCC3` , thank you.
A. no

Q. Assay result, entry Cc1ccc(S(=O)(=O)OC2COCOC2C(OS(=O)(=O)c2ccc(C)cc2)C2OCOCC2OS(=O)(=O)c2ccc(C)cc2)cc1 (centres undefined) — outcome?
A. no

Q. Dear all, I need the recorded test outcome for `COC(=O)CCCCCN=Cc1c(O)c(O)c(C(C)C)c2cc(C)c(-c3c(C)cc4c(C(C)C)c(O)c(O)c(C=NCCCCCC(=O)OC)c4c3O)c(O)c12` , thank you.
A. no

Q. Hello, I am checking results. What call was entered for `Clc1cccc(Cl)c1Cn1c(-c2cncs2)nc2ccccc21` ?
A. no

Q. How did this test come out for `COc1ccc(-c2nc3sccn3c2-c2ccnc(NCCNS(=O)(=O)c3ccc(C(F)(F)F)cc3)n2)cc1` ?
A. no

Q. I'd appreciate the recorded outcome for `Cc1ccc(OCCn2c(C)nn(-c3ccc(Cl)cc3)c2=O)cc1` from this test.
A. no
